System tested: Anoctamin-1 (Mus musculus)
Assay name: TMEM16A chloride channel inhibitors, confirmation, cell-based, re-confirmation (AID 652189)
Run conditions: HEK293 TMEM16A/YFP-H148Q, iodide quench fluorescence, at 10 µM, ionomycin added to raise cell calcium
Out of some 2,300 compounds screened, about 900 (39%) were called active.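 How the source made its calls: active means mean duplicate percent inhibition, scaled so buffer wells are 0 and the reference blocker 100, over three buffer SD above buffer mean; inactive means the rest.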 The list is a sample of the results.
Your response should consist of one outcome taken from active, inactive

Worked set:
Molecule | Cat
O=C(O)c1ccc(NC(=O)C2CCCCC2)cc1 | inactive
CSc1nsc(NC(=O)Nc2ccccc2)n1 | active
O=C(Nc1ccccc1)c1ccccc1NC(=O)C(F)(F)F | active
N#CC1=C(SCc2ccccc2)NC(=O)C(C#N)C12CCCC2 (stereo not drawn) | active
CC(=O)c1c(C)[nH]c(C(=O)COC(=O)c2cccc(S(=O)(=O)N(C)c3ccccc3)c2)c1C | active

input: How did this test come out for C=CCSc1nsc(NC(=O)Nc2cccc(C(C)=O)c2)n1 ?
output: active

input: Could you do the same for Cc1nc(C)c(-c2csc(NCCc3ccccc3)n2)s1 , please?
output: active

input: For Cc1ccccc1-n1nnnc1SCCCC(=O)c1ccc(F)cc1 then?
output: inactive

---

System tested: Anoctamin-1 (Mus musculus)
Assay name: TMEM16A chloride channel inhibitors, confirmation, cell-based, re-confirmation (AID 652189)
Run conditions: HEK293 TMEM16A/YFP-H148Q, iodide quench fluorescence, at 10 µM, ionomycin added to raise cell calcium; stronger effect = higher value
Screen size: about 2,300 compounds; about 900 (39%) were called active. Not all results are given here.
Property label: inhibition

The cases that follow already have their inhibition on record.
Molecule | inhibition
Cc1ccc(-n2[nH]c(C)c(/C=N/N3C(=O)c4cccc5cccc(c45)C3=O)c2=O)cc1 | inactive
N#Cc1nc(COc2ccc(-c3ccccc3)cc2)oc1NCc1cccnc1 | inactive
O=c1cc(C(F)(F)F)[nH]c(=O)n1C1CCCCC1 | inactive
CCn1nccc1C(=O)Nc1ccc(S(=O)(=O)NC23CC4CC(CC(C4)C2)C3)cc1 | inactive
S=C(NCc1cccs1)Nc1ccc(Cl)cc1 | inactive
CC(C)(C)C(=O)/C(C#N)=C/c1ccc(O)cc1 | 23% (active)

input: Requested field: inhibition. Item: CN1c2ccc(C=O)c3c(C=O)ccc(c23)N(C)C1(C)C
output: inactive

input: Entry Cc1cccc(-n2c(SCC(N)=O)nc3c(c2=O)C2(CCCCC2)Cc2ccccc2-3)c1 please
output: 22% (active)

input: Try Cc1[nH]n(-c2cccc(Cl)c2)c(=O)c1-c1ccc(Cl)cc1 next.
output: 24% (active)

input: What do we get for CCCc1cc(=S)n2c([nH]c3ccccc32)c1C#N ?
output: 35.5% (active)

input: Now try Cc1ccc(F)cc1NC(=O)Cc1nn(C)c(=O)c2ccccc12 .
output: 34.5% (active)

input: Note, next up: O=C1NC(=O)C2C1C(c1ccc([N+](=O)[O-])cc1)=NN2Cc1ccccc1 (stereo unspecified)
output: inactive

input: Another molecule: Cc1ccc(NC(=O)CN(C)CC(=O)Nc2cccc(F)c2)cc1[N+](=O)[O-]
output: 24.5% (active)

input: And what about the molecule Cc1ccc(N2C(=O)S/C(=C/c3cn(C)c4ccccc34)C2=O)cc1 ?
output: inactive

input: Okay, and C=CCn1c(SCC(=O)Nc2nc3ccccc3s2)nnc1-c1ccccc1O ?
output: 30.5% (active)

input: Now consider CN(C)c1cc[n+](Cc2ccccc2)cc1 .
output: inactive
